Listed next: entries and their corresponding CC50 at 6 days.
# ASSAY_NOTES: Cytotoxicity determination in HepG2.2.15 cells (CCK-8)
# Assay type: cell-based
# TEST_PARAMETERS: human, 6 days of compound treatment, CCK-8, highest concentration 100 μM
State the answer as a number, implicitly in µM.

See these solved cases before continuing.
CCOC(=O)C1=C(C2CCN(S(=O)(=O)[C@H]3C[C@H](C(=O)O)C3)CC2)NC(c2nccs2)=NC1c1cccc(F)c1Br (relative stereo) [Compound 339B]: 13.4
CCOC(=O)C1=C([C@H]2CC[C@H](C(=O)NC)CC2)NC(c2nccs2)=NC1c1ccc(F)cc1Cl (single isomer, unassigned) [Compound 132A]: 23.9

Then there is this molecule:
Fill in the blank: the reported CC50 at 6 days of COC(=O)C1=C(C2CCN(S(=O)(=O)c3cn[nH]c3)CC2)NC(c2nccs2)=NC1c1ccc(F)c(F)c1Cl (stereo not drawn) is ____. 9.8

The values you see were collected from patent US11639350B2.
